Hey, just so you know, these numbers are from paper PMC4336329.

- target: human ether-à-go-go-related gene (hERG) potassium channel (human, UniProt Q12809);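 also: peak tail current of the secondary pulse compared with the same well before compound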
- Sequence (Q12809 whole entry, looked up): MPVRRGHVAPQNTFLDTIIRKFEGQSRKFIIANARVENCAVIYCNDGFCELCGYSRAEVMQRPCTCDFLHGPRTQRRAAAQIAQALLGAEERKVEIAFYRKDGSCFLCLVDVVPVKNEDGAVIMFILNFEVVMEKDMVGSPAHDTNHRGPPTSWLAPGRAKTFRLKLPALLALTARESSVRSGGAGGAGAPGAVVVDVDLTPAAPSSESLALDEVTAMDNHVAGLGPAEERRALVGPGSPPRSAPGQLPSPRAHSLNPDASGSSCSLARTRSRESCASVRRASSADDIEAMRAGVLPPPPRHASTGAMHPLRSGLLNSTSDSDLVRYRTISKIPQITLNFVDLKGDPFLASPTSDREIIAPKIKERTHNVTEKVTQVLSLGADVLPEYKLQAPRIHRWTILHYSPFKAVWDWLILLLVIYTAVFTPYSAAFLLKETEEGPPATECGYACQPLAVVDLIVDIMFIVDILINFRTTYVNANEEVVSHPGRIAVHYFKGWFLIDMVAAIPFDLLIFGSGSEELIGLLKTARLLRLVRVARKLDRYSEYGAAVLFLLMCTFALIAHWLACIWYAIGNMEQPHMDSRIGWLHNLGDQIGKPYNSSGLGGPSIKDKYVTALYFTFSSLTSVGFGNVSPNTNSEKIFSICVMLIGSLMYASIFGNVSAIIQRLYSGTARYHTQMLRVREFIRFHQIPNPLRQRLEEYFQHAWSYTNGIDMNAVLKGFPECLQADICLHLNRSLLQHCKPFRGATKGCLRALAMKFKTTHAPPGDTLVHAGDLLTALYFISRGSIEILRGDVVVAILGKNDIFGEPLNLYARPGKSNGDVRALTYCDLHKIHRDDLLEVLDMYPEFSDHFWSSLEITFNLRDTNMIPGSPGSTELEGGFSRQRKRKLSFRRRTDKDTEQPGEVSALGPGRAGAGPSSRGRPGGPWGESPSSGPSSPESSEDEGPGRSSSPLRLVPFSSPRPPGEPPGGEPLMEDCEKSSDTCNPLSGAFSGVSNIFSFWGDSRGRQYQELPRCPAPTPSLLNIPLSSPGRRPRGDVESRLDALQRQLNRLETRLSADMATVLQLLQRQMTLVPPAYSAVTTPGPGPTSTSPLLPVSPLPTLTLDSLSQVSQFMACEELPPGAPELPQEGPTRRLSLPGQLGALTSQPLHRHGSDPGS
- test_protocol: primary screen, population patch clamp on CHO cells stably expressing hERG; higher = less effect of the substance
The campaign covered roughly 310,000 compounds. About 14,000 (4.5%) showed an effect of 50% or more. Effects have a minus sign here. The sample as a whole holds a higher share of strong results than the screen did.
measure_name: hERG current change (%, negative = inhibition) at 10uM (%)
Answer format: numeric, % implied, no suffix.

## Task I'd like to know its hERG current change (%, negative = inhibition) at 10uM. The compound in question is "CCOCCCNC(=O)c1ccc(CS(=O)(=O)c2cccc(C(F)(F)F)c2)o1"
## Result 6.78

## Task CCN1CCN(C(=O)c2ccc(CS(=O)Cc3ccc(C)cc3)o2)CC1 (stereo not drawn) ?
## Result 11

## Task "COc1ccccc1NS(=O)(=O)c1ccc(N/N=C(\C)C(C)C)c([N+](=O)[O-])c1" ?
## Result 9.29

## Task CC1Cc2ccccc2N1C(=S)Nc1cccc(S(=O)(=O)N(C)C)c1 (stereo not drawn) ?
## Result 2.06

## Task "Cc1ccc(CN2CCCN(Cc3ccccc3C)S2(=O)=O)cc1" ?
## Result 21.1

## Task "CNC(=S)N/N=C/c1cccc(OCc2ccccc2F)c1" ?
## Result 18.3

## Task "COC(=O)C[C@H]1c2cc(F)cc(F)c2S(=O)(=O)N1C1CCN(Cc2ccccc2)CC1" ?
## Result -32

## Task "O=C(Nc1ccccc1)/C(=C\c1ccc(F)cc1)NC(=O)c1ccco1" ?
## Result 3.87

## Task "COCCNC(=O)c1ccc(CS(=O)(=O)c2cccc(C(F)(F)F)c2)o1" ?
## Result 4.09

---

- target: human ether-à-go-go-related gene (hERG) potassium channel (human, UniProt Q12809);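 also: peak tail current of the secondary pulse compared with the same well before compound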
- test_protocol: primary screen, population patch clamp on CHO cells stably expressing hERG; higher = less effect of the substance
Among all 310,000 compounds or so, about 14,000 (4.5%) showed an effect of 50% or more. The effect is printed as a negative number. Shown is part of a subset that was picked to be rich in strong results.
For each of the molecules below, state its hERG current change (%, negative = inhibition) at 10uM.
Answer format: numeric, % implied, no suffix.

## Task I'd like to know its hERG current change (%, negative = inhibition) at 10uM. The molecule in question is "COC(=O)c1sc(NC(=O)c2cnccn2)c(C(=O)OC)c1C"
## Result 18.7

## Task Cc1cc(C)c2nc(SC3CCOC3=O)cc(C)c2c1 (stereo not shown) ?
## Result 4.23

## Task "Cc1cc(Cl)cc(C)c1OCCNCc1ccccc1.O=C(O)C(=O)O" ?
## Result -3.66

## Task "COc1ccc(C2=CC(=O)N(Nc3ccccc3)C2=O)cc1" ?
## Result 24.6

## Task "CCCCC(=O)Nc1ncc2c(n1)CC(C)(C)CC2=O" ?
## Result -5.63

## Task CCCCC1CC1C(=O)Nc1ncc2c(n1)CC(C)(C)CC2=O (stereo not shown) ?
## Result -57.5

## Task "Cc1cc(NC(=O)CSc2nc3ccsc3c(=O)n2NC(=O)c2ccccc2)no1" ?
## Result -1.69

## Task COc1ccc(NC(=O)C(CC(=O)O)Cc2ccc(Cl)cc2)cc1 (stereo not shown) ?
## Result 11.9

## Task "FC(F)(F)c1ccccc1NC(=S)N1CCN(c2ccccn2)CC1" ?
## Result 5.12

## Task "Cc1cc(C)c(C)c(OCCOCCNCc2ccccc2)c1.O=C(O)C(=O)O" ?
## Result -54.2
